- Experimental target: human BRD4 bromodomain II (Homo sapiens, UniProt O60885)
- Construct: human BRD4 bromodomain II [based on Genbank NM_058243, residues 349-460]; host or cells: E. coli
- Assay name: Bromodomain binding assay (AlphaScreen), BRD4 BDII
- Details: BRD4 BDII AlphaScreen assay; read-out: BRD4 BD2 IC50
pIC50: −log10 of the molar value.
Experimental endpoint: pIC50

Query: May I ask what pIC50 has been recorded for COc1ncc(-c2cc(F)cc(-c3ccc(-n4ccn(C)c4=O)c(Cl)c3)c2O)cc1N1CCC2(CCCN2C(C)C)C1 (centres unmarked) [Example 913] ?
Response: 9.00 to 11.00

Query: Similarly, Cc1ncc(-c2cc(F)cc(-c3ccc(-n4ccn(C)c4=O)c(Cl)c3)c2O)cc1N1CC[C@]2(CCCN2C(C)C)C1 [Example 956] ?
Response: 8.00 to 9.00

Query: Similarly, Cc1ccc(-c2cc(F)cc(-c3ccc(-n4ccn(C)c4=O)c(Cl)c3)c2O)cc1N1CC(C)(O)C2(CC2)C1 (centres unmarked) [Example 854] ?
Response: 8.00 to 9.00

Query: Similarly, Cn1cc(-c2cccc(N3CCN(C(C)(C)C)CC3)c2)c(O)c(-c2ccc(-n3ccn(C)c3=O)c(Cl)c2)c1=O [Example 1030] ?
Response: 7.00 to 8.00

Query: Similarly, CC(C)Oc1cc(-c2cc(F)cc(-c3cccc(N4CCN(C(C)(C)C)CC4)c3)c2O)cc(Cl)c1-n1ccn(C)c1=O [Example 937] ?
Response: 7.00 to 8.00

Query: Similarly, CC(C)N1CCC[C@]12CCN(c1cccc(-c3cc(F)cc(-c4ccc(-n5ccn(C)c5=O)c(Cl)c4)c3O)c1)C2 [Example 967] ?
Response: 8.00 to 9.00

Query: Similarly, COCC(C)(C)N1CCN(c2cc(-c3cc(F)cc(-c4ccc(-n5ccn(C)c5=O)c(Cl)c4)c3O)cnc2C)CC1 [Example 856] ?
Response: 8.00 to 9.00

Query: Similarly, CCc1cc(-c2cc(F)cc(-c3cccc(N4CCN(C(C)(C)C)CC4)c3)c2O)cc(Cl)c1-n1ccn(C)c1=O [Example 929] ?
Response: < 7.00

Query: Similarly, COc1ncc(-c2cc(F)cc(-c3ccc(-n4ccn(C)c4=O)c(Cl)c3)c2OC(C)=O)cc1N1CCN(C(C)C)CC1 [Example 860] ?
Response: < 7.00

Query: Similarly, Cc1cc(-c2ccc(-n3ccn(C)c3=O)c(Cl)c2)c(O)c(-c2cccc(N3CCN(C(C)(C)C)CC3)c2)n1 [Example 916] ?
Response: 9.00 to 11.00

Query: Similarly, Cc1cc(-c2ccc(-n3ccn(C)c3=O)c(F)c2)c(O)c(-c2cnc(C)c(N3CCN(C(C)(C)C)CC3)c2)n1 [Example 1001] ?
Response: 8.00 to 9.00

Query: Similarly, CC(=O)Nc1cnc(-c2cc(F)cc(-c3cccc(N4CCN(C(C)(C)C)CC4)c3)c2O)nc1 [Example 894] ?
Response: < 7.00

Query: Similarly, Cn1ccn(-c2c(O)cc(-c3cc(F)cc(-c4cccc(N5CCN(C(C)(C)C)CC5)c4)c3O)cc2Cl)c1=O [Example 952] ?
Response: < 7.00

Query: Similarly, Cn1ccn(-c2ccc(-c3cc(F)cc(-c4cccc(-c5cccc(CN)c5)c4)c3O)cc2Cl)c1=O [Example 866] ?
Response: 7.00 to 8.00

====

- Experimental target: human BRD4 bromodomain II (Homo sapiens, UniProt O60885)
- Construct: human BRD4 bromodomain II [based on Genbank NM_058243, residues 349-460]; host or cells: E. coli
- Assay name: Bromodomain binding assay (AlphaScreen), BRD4 BDII
- Details: BRD4 BDII AlphaScreen assay; read-out: BRD4 BD2 IC50
pIC50: −log10 of the molar value.
Experimental endpoint: pIC50

Query: May I ask what pIC50 has been recorded for Cc1cc(-c2ccc(-n3ccn(C)c3=O)c(Cl)c2)c(O)c(-c2cc(F)cc(N3CCN(C(C)(C)C)CC3)c2)n1 [Example 1014] ?
Response: 9.00 to 11.00

Query: Similarly, COc1ncc(-c2cc(F)cc(-c3ccc(-n4ccn(C)c4=O)c(Cl)c3)c2O)cc1N1CCN(C2CCOC2)CC1 (centres unmarked) [Example 869] ?
Response: 8.00 to 9.00

Query: Similarly, CC(C)N1CCCC12CCN(c1cc(-c3cc(F)cc(-c4ccc(-n5ccn(C)c5=O)c(Cl)c4)c3O)cnc1N)C2 (centres unmarked) [Example 968] ?
Response: 8.00 to 9.00

Query: Similarly, COc1ncc(-c2nc(C)cc(-c3ccc(-n4ccn(C)c4=O)c(Cl)c3)c2O)cc1N1CCC2(CCN2C(C)C)C1 (centres unmarked) [Example 977] ?
Response: 9.00 to 11.00

Query: Similarly, COc1ncc(-c2nc(C)cc(-c3ccc(-n4ccn(C)c4=O)c(F)c3)c2O)cc1N1CCN(C(C)(C)C)CC1 [Example 997] ?
Response: 8.00 to 9.00

Query: Similarly, Cn1ccn(-c2ccc(-c3cnnc(-c4cccc(N5CCN(C(C)(C)C)CC5)c4)c3O)cc2Cl)c1=O [Example 1020] ?
Response: < 7.00

Query: Similarly, Cc1ncc(-c2cc(F)cc(-c3ccc(-n4ccn(C)c4=O)c(Cl)c3)c2O)cc1N1CC(C)(C)[C@](C)(O)C1 [Example 884] ?
Response: 8.00 to 9.00

Query: Similarly, [2H]C([2H])([2H])C(=O)Nc1ccc(-c2cc(C)nc(-c3cccc(N4CCN(C(C)(C)C)CC4)c3)c2O)cc1Cl [Example 1008] ?
Response: 8.00 to 9.00

Query: Similarly, COc1ncc(-c2cc(F)cc(-c3ccc(-n4ccn(C)c4=O)c(Cl)c3)c2O)cc1N1CC(F)(F)[C@@](C)(O)C1 [Example 899] ?
Response: 8.00 to 9.00

Query: Similarly, Cc1cc(-c2ccc(-n3ccn(C)c3=O)c(Cl)c2)c(O)c(-c2cnc(C)c(N3CCN(C(C)(C)C)CC3)c2)n1 [Example 961] ?
Response: 8.00 to 9.00

Query: Similarly, Cc1ncc(-c2cc(F)cc(-c3ccc(-n4ccn(C)c4=O)c(Cl)c3)c2O)cc1N1CCC2(CCN2C(C)C)C1 (centres unmarked) [Example 891] ?
Response: 8.00 to 9.00

Query: Similarly, Cc1cc(-c2ccc(-n3ccn(C)c3=O)c(Cl)c2)c(O)c(-c2ccnc(N3CC(F)(F)[C@@](C)(O)C3)c2)n1 [Example 1036] ?
Response: 8.00 to 9.00

Query: Similarly, COc1ncc(-c2cc(F)cc(-c3ccc(-n4ccn(C)c4=O)c(Cl)c3)c2O)cc1N1CC2(CC2)[C@](C)(O)C1 [Example 875] ?
Response: 9.00 to 11.00

Query: Similarly, Cn1cc(-c2ccc(-n3ccn(C)c3=O)c(Cl)c2)c(O)c(-c2cccc(N3CCN(C(C)(C)C)CC3)c2)c1=O [Example 1018] ?
Response: 7.00 to 8.00

====

Could you please report measured pIC50 for the items listed next?
- Experimental target: human BRD4 bromodomain II (Homo sapiens, UniProt O60885)
- Construct: human BRD4 bromodomain II [based on Genbank NM_058243, residues 349-460]; host or cells: E. coli
- Assay name: Bromodomain binding assay (AlphaScreen), BRD4 BDII
- Details: AlphaScreen assay, Table C2; read-out: BRD4 BDII IC50
pIC50: −log10 of the molar value.

Query: May I ask what pIC50 has been recorded for Cn1ccn(-c2ccc(-c3cc(F)cc(-c4cc(N5CCNC(C)(C)C5)c5cn[nH]c5c4)c3O)cc2Cl)c1=O [Example 589] ?
Response: 8.00 to 9.00

Query: Similarly, Cn1ccn(-c2ccc(-c3cc(F)cc(-c4ccnc(N5CCN(CC(C)(C)C#N)CC5)c4)c3O)cc2Cl)c1=O [Example 652] ?
Response: 9.00 to 11.00

Query: Similarly, Cn1ccn(-c2ccc(-c3cc(F)cc(-c4ccnc(N5CC6CCC(C5)C6(C)O)c4)c3O)cc2Cl)c1=O (centres unmarked) [Example 785] ?
Response: 8.00 to 9.00

Query: Similarly, O=C1NCCCN1c1ccc(-c2cccc(-c3ccnc(N4CCNCC4)c3)c2O)cc1F [Example 277] ?
Response: < 7.00

Query: Similarly, CC(=O)Nc1ccc(-c2cc(F)cc(-c3ccnc(N4CCNCC4)c3)c2O)cc1F [Example 224] ?
Response: 8.00 to 9.00

Query: Similarly, CC(=O)Nc1ccc(-c2cccc(-c3ccc4cnccc4c3)c2O)cc1F [Example 145] ?
Response: 7.00 to 8.00

Query: Similarly, CC(=O)Nc1ccc(-c2cccc(-c3cnn(-c4ccc(F)cc4)c3)c2O)cc1 [Example 16] ?
Response: < 7.00

Query: Similarly, Cn1ccn(-c2ccc(-c3cc(F)cc(-c4cncc(N5CC6CNC(C6)C5)c4)c3O)cc2Cl)c1=O (centres unmarked) [Example 572] ?
Response: 9.00 to 11.00

meta.source: patent US20250179059A1
